Reference for the values: patent US20230287021A1

Experiment: In vitro rat plasma stability assay, formation of tafamidis
Format: in vitro ADME
Details: 37° C., 2 µM test compound
Measure: Formation of tafamidis at 120 min

Here is how some compounds turned out for Formation of tafamidis at 120 min.
CC(C)(C)OC(=O)N1CC2CCC1CC2OC(=O)c1ccc2nc(-c3cc(Cl)cc(Cl)c3)oc2c1 (centres unmarked): A (A is <25%)
CC(C)(C)OC(=O)N[C@@H](Cc1cccc(OC(=O)c2ccc3nc(-c4cc(Cl)cc(Cl)c4)oc3c2)c1)C(=O)OCc1ccccc1: B (B is ≥25 to <50%)
O=C(OCCCC1CCCO1)c1ccc2nc(-c3cc(Cl)cc(Cl)c3)oc2c1 (centres unmarked): C (C is ≥50 to <75%)
O=C(OCCCN1CCCC1)c1ccc2nc(-c3cc(Cl)cc(Cl)c3)oc2c1: B (B is ≥25 to <50%)
O=C(OCCN1CCC1)c1ccc2nc(-c3cc(Cl)cc(Cl)c3)oc2c1: C (C is ≥50 to <75%)

Task: Could you tell me which Formation of tafamidis at 120 min is on file for NCCOC(=O)c1ccc2nc(-c3cc(Cl)cc(Cl)c3)oc2c1 ?
Result: A (A is <25%)

Task: Name the recorded Formation of tafamidis at 120 min for O=C(OCCC1CCOC1)c1ccc2nc(-c3cc(Cl)cc(Cl)c3)oc2c1 (centres unmarked) .
Result: C (C is ≥50 to <75%)
